study-target: human PDE4D3 (Homo sapiens (Human))
Sequence (Q08499 186-808): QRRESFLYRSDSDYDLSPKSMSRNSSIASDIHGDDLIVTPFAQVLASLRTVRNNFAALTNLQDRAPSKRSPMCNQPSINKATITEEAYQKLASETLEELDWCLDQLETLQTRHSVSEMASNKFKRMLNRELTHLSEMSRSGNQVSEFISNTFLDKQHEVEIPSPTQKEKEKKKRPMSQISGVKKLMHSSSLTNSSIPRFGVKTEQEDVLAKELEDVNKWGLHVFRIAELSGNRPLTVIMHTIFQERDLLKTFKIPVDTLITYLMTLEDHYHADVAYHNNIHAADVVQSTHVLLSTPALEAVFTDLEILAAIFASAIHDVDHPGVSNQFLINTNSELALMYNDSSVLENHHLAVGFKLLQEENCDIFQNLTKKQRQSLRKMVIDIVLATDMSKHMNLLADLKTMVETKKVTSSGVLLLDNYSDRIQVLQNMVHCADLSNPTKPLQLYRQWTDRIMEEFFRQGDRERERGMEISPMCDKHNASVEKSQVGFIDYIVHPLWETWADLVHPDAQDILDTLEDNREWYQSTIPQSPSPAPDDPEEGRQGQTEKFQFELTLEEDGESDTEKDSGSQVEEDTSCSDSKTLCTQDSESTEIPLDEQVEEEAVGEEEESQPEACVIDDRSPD
method-notes: PDE4D3 Scintillation Proximity Assay (SPA), inhibition of enzyme activity
Type: biochemical
measurement-parameters: Table 9, geometric mean of 2-9 determinations unless otherwise indicated, read-out: Human PDE4D FL
pIC50: −log10 of the molar value.
Property: pIC50; scope: individual molecules

| molecule | pIC50 |
| --- | --- |
| N#Cc1ccc(-c2c3n(c4scnc24)CCN(C2CC2)C3=O)cn1 | 5.97 |
| O=C1c2c(-c3ccc(Cl)cc3)c3ncccc3n2CC2COCCN12 (stereo not drawn) | 5.87 |
| O=c1c2c(-c3ccc(Cl)cc3)c3ncccc3n2ccn1-c1nnc[nH]1 | 5.57 |
| CCN1CCn2c(c(-c3ccc(Cl)cc3)c3ncccc32)C1=O | 7.06 |
| Cc1cc(Cl)c(F)cc1-c1c2c(n3c1C(=O)N(C1CC1)CC3)CCCO2 | 7.90 |
| O=C1c2c(-c3cccc(Cl)c3)c3ncccc3n2CCN1C1CC1 | 7.70 |
| O=C1c2c(-c3cncc(Cl)c3)c3ncccc3n2CCN1C1CC1 | 5.70 |
| O=C1c2c(-c3ccc(Cl)cc3)c3ncccc3n2CCN1c1nnc[nH]1 | 6.32 |
| O=C1c2c(-c3cnc4ccoc4c3)c3ncccc3n2CCN1C1CC1 | 6.34 |

---

study-target: Human PDE4A3 (Homo sapiens (Human))
Sequence (P27815 other isoform, or with tags, fused parts or gaps): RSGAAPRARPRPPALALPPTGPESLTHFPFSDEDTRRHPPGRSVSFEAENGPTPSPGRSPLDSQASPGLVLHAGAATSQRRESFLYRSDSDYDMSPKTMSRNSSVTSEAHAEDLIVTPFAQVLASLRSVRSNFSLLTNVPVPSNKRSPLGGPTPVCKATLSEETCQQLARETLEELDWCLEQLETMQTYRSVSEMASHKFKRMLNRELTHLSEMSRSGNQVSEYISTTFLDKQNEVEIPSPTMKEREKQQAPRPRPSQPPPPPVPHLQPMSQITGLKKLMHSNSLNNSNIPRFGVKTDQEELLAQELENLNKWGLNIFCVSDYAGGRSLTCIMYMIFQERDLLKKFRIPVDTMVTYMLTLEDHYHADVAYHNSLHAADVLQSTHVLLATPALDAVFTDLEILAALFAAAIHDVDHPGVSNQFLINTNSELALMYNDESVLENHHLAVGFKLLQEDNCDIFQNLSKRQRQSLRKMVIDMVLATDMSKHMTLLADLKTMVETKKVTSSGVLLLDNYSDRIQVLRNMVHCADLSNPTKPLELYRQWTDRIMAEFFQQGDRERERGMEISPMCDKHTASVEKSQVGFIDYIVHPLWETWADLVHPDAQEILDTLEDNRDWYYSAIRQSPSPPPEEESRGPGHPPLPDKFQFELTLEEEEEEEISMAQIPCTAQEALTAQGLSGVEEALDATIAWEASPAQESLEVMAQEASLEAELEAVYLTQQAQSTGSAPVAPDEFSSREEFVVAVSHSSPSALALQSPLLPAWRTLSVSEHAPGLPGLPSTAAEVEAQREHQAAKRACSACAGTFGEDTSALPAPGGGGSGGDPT
method-notes: PDE4A3 Scintillation Proximity Assay (SPA), inhibition of enzyme activity
Format: biochemical
measurement-parameters: Table 9, geometric mean of 2-9 determinations unless otherwise indicated, read-out: Human PDE4A FL

| sample-smiles | study-target | inequality-sign | IC50 [nM] |
| --- | --- | --- | --- |
| O=C1c2c(-c3ccc(Cl)cc3F)c3ncccc3n2CCN1C1CC1 | Human PDE4A3 (Homo sapiens (Human)) | = | 2 |
| O=C1c2c(-c3ccc(Cl)cc3)c3ncccc3n2CCN1C1CC1 | Human PDE4A3 (Homo sapiens (Human)) | < | 0.99 |
| Cc1ccc(-c2c3ncccc3n3ccn(C4CC4)c(=O)c23)cc1 | Human PDE4A3 (Homo sapiens (Human)) | = | 1.86 |
| O=C1c2c(-c3cc(F)c(Cl)cc3F)c3c(n2CCN1C1CC1)CCCO3 | Human PDE4A3 (Homo sapiens (Human)) | = | 1 |
| O=C1c2c(-c3ccc(Cl)cc3)c3ncsc3n2CCN1C1CC1 | Human PDE4A3 (Homo sapiens (Human)) | = | 2.28 |
| O=C1c2c(-c3ccc(Cl)c(F)c3)c3ncncc3n2CCN1C1CC1 | Human PDE4A3 (Homo sapiens (Human)) | = | 14.3 |
| O=C1c2c(-c3ccccc3)c3ncccc3n2CCN1C1CC1 | Human PDE4A3 (Homo sapiens (Human)) | = | 12.2 |
| Cc1cc(C#N)ccc1-c1c2n(c3scnc13)CCN(C1CC1)C2=O | Human PDE4A3 (Homo sapiens (Human)) | = | 18.5 |
| O=C1c2c(-c3ccc(F)cc3F)c3ncccc3n2CCN1C1CC1 | Human PDE4A3 (Homo sapiens (Human)) | = | 5.59 |
| Cc1cc(N2CCn3c(c(-c4ccc(Cl)cc4)c4ncccc43)C2=O)no1 | Human PDE4A3 (Homo sapiens (Human)) | = | 3.49 |
| Cc1ncc(-c2c3n(c4cccnc24)CCN(C2CC2)C3=O)cn1 | Human PDE4A3 (Homo sapiens (Human)) | = | 8.6 |
| COc1ccc(-c2c3n(c4cccnc24)CCN(C2CC2)C3=O)cc1 | Human PDE4A3 (Homo sapiens (Human)) | = | 33 |
| COc1ccc(-c2c3n(c4cccnc24)CCN(C2CC2)C3=O)c(F)c1 | Human PDE4A3 (Homo sapiens (Human)) | = | 21.2 |
| C[C@@H]1Cn2c(c(-c3ccc(Cl)cc3)c3ncccc32)C(=O)N1C1CC1 | Human PDE4A3 (Homo sapiens (Human)) | = | 15.5 |
| O=C1c2c(-c3ccc(F)c(Cl)c3)c3ncccc3n2CCN1C1CC1 | Human PDE4A3 (Homo sapiens (Human)) | < | 0.67 |
| N#Cc1ccc(-c2c3n(c4cccnc24)CCN(C2CC2)C3=O)cc1F | Human PDE4A3 (Homo sapiens (Human)) | = | 4.66 |
| O=C1c2c(-c3ccc(Cl)c(F)c3)c3nccnc3n2CCN1C1CC1 | Human PDE4A3 (Homo sapiens (Human)) | = | 1.19 |
| O=C1c2c(-c3cccc(F)c3)c3ncccc3n2CCN1C1CC1 | Human PDE4A3 (Homo sapiens (Human)) | = | 1.26 |
| N#Cc1ccc(-c2c3n(c4cccnc24)CCN(C2CC2)C3=O)cn1 | Human PDE4A3 (Homo sapiens (Human)) | = | 8.15 |

Data provenance: patent US11472805B2
